Tested on: LHRH binding sites on human ovarian cancer cells (EFO-27)
Non-standard residues stand in square brackets, D forms with d. Residues, ends and D or L forms follow the SMILES beside them. *: point of attachment. DOTA = O=C(O)CN1CCN(CC(=O)O)CCN(CC(=O)*)CCN(CC(=O)O)CC1; Bpa = N[C@@H](Cc1ccc(C(=O)c2ccccc2)cc1)C(=O)O; Ala(4-thiazolyl) = N[C@@H](Cc1cscn1)C(=O)O; azaGly = NNC(=O)O; Sar = CNCC(=O)O
# EC50 listing for each entry below
Numbers only; they are read as nM.

Some entries whose results are on file:
N=C(N)NCCC[C@H](NC(=O)[C@@H](Cc1ccc2ccccc2c1)NC(=O)CN1CCN(CC(=O)O)CCN(CC(=O)O)CCN(CC(=O)O)CC1)C(=O)N[C@@H](Cc1c[nH]c2ccccc12)C(=O)N[C@@H](CO)C(=O)N[C@@H](Cc1c[nH]cn1)C(=O)N[C@H](CCCNC(=N)N)C(=O)N[C@@H](Cc1c[nH]c2ccccc12)C(=O)N[C@@H](Cc1ccc(C(=O)c2ccccc2)cc1)C(=O)N1CCC[C@H]1C(=O)NCCOCCNC(=N)N
460
N=C(N)NCCC[C@H](NC(=O)[C@@H](Cc1ccc2ccccc2c1)NC(=O)CN1CCN(CC(=O)O)CCN(CC(=O)O)CCN(CC(=O)O)CC1)C(=O)N[C@@H](Cc1c[nH]c2ccccc12)C(=O)N[C@@H](CO)C(=O)N[C@@H](Cc1c[nH]cn1)C(=O)N[C@H](CCCNC(=N)N)C(=O)N[C@@H](Cc1c[nH]c2ccccc12)C(=O)N[C@@H](Cc1ccc(C(=O)c2ccccc2)cc1)C(=O)N1C[C@H](O)C[C@H]1C(=O)NNC(N)=O
280

Asked: Provide EC50, recorded with LHRH binding sites on human ovarian cancer cells (EFO-27), of CN(CC(=O)N[C@@H](Cc1c[nH]cn1)C(=O)N[C@@H](Cc1c[nH]c2ccccc12)C(=O)N[C@@H](CO)C(=O)N[C@@H](Cc1cscn1)C(=O)N[C@H](CCCNC(=N)N)C(=O)N[C@@H](Cc1c[nH]c2ccccc12)C(=O)N[C@@H](Cc1ccc(C(=O)c2ccccc2)cc1)C(=O)N1CCC[C@H]1C(=O)NNC(N)=O)C(=O)CN1CCN(CC(=O)O)CCN(CC(=O)O)CCN(CC(=O)O)CC1 [BRU-2769] ({DOTA}-[Sar]HWS[Ala(4-thiazolyl)][dR]W[Bpa]P[azaGly]-NH2; C-terminus assumed)
Given back: 7340

Asked: Provide the reported EC50 (system: LHRH binding sites on human ovarian cancer cells (EFO-27)) for N=C(N)NCCC[C@H](NC(=O)[C@@H](Cc1ccc2ccccc2c1)NC(=O)CN1CCN(CC(=O)O)CCN(CC(=O)O)CCN(CC(=O)O)CC1)C(=O)N[C@@H](Cc1c[nH]c2ccccc12)C(=O)N[C@@H](CO)C(=O)N[C@@H](Cc1c[nH]cn1)C(=O)N[C@H](CCCNC(=N)N)C(=O)N[C@@H](Cc1c[nH]c2ccccc12)C(=O)N[C@@H](Cc1ccc(C(=O)c2ccccc2)cc1)C(=O)N1CCC[C@H]1C(=O)NC(=N)N
Given back: 400

----------
pEC50 tested on LHRH binding sites on human ovarian cancer cells (EFO-27): recorded values
Non-standard residues stand in square brackets, D forms with d. Residues, ends and D or L forms follow the SMILES beside them. *: point of attachment. DOTA = O=C(O)CN1CCN(CC(=O)O)CCN(CC(=O)*)CCN(CC(=O)O)CC1; Bpa = N[C@@H](Cc1ccc(C(=O)c2ccccc2)cc1)C(=O)O; d2Nal = N[C@H](Cc1ccc2ccccc2c1)C(=O)O; azaGly = NNC(=O)O
Quick note: pEC50 means taking -log10 of the concentration in moles per liter.

N=C(N)NCCC[C@H](NC(=O)[C@@H](Cc1ccc2ccccc2c1)NC(=O)[C@@H](N)CCCCNC(=O)CN1CCN(CC(=O)O)CCN(CC(=O)O)CCN(CC(=O)O)CC1)C(=O)N[C@@H](Cc1c[nH]c2ccccc12)C(=O)N[C@@H](CO)C(=O)N[C@@H](Cc1c[nH]cn1)C(=O)N[C@H](CCCNC(=N)N)C(=O)N[C@@H](Cc1c[nH]c2ccccc12)C(=O)N[C@@H](Cc1ccc(C(=O)c2ccccc2)cc1)C(=O)N1CCC[C@H]1C(=O)NNC(N)=O [BRU 3098]
6.39
CN(CC(=O)N[C@@H](Cc1c[nH]cn1)C(=O)N[C@@H](Cc1c[nH]c2ccccc12)C(=O)N[C@@H](CO)C(=O)N[C@@H](Cc1c[nH]cn1)C(=O)N[C@H](CCCNC(=N)N)C(=O)N[C@@H](Cc1c[nH]c2ccccc12)C(=O)N[C@@H](Cc1cccc2ccccc12)C(=O)N1CCC[C@H]1C(=O)NNC(N)=O)C(=O)CN1CCN(CC(=O)O)CCN(CC(=O)O)CCN(CC(=O)O)CC1 [BRU-2720]
6.27
CN(CC(=O)N[C@@H](Cc1c[nH]cn1)C(=O)N[C@@H](Cc1c[nH]c2ccccc12)C(=O)N[C@@H](CO)C(=O)N[C@@H](Cc1c[nH]cn1)C(=O)N[C@H](CCCNC(=N)N)C(=O)N[C@@H](Cc1c[nH]c2ccccc12)C(=O)N[C@H](C(=O)N1CCC[C@H]1C(=O)NNC(N)=O)C1Cc2ccccc2C1)C(=O)CN1CCN(CC(=O)O)CCN(CC(=O)O)CCN(CC(=O)O)CC1 [BRU-2765]
5.06
N=C(N)NCCC[C@H](NC(=O)[C@@H](Cc1ccc2ccccc2c1)NC(=O)CN1CCN(CC(=O)O)CCN(CC(=O)O)CCN(CC(=O)O)CC1)C(=O)N[C@@H](Cc1c[nH]c2ccccc12)C(=O)N[C@@H](CO)C(=O)N[C@@H](Cc1c[nH]cn1)C(=O)N[C@H](CCCNC(=N)N)C(=O)N[C@@H](Cc1c[nH]c2ccccc12)C(=O)N[C@@H](Cc1ccc(C(=O)c2ccccc2)cc1)C(=O)N1CCC[C@H]1C(=O)NNC(=O)NCCOCCN [compound 3022]
6.15
CN(CC(=O)N[C@@H](Cc1c[nH]cn1)C(=O)N[C@@H](Cc1c[nH]c2ccccc12)C(=O)N[C@@H](CO)C(=O)N[C@@H](Cc1c[nH]cn1)C(=O)N[C@H](CCCNC(=N)N)C(=O)N[C@@H](Cc1c[nH]c2ccccc12)C(=O)N[C@@H](CC1CCCCC1)C(=O)N1CCC[C@H]1C(=O)NNC(N)=O)C(=O)CN1CCN(CC(=O)O)CCN(CC(=O)O)CCN(CC(=O)O)CC1 [BRU-2718]
6.20

Asked: Determine reported pEC50 for CN(CC(=O)N[C@@H](Cc1c[nH]cn1)C(=O)N[C@@H](Cc1c[nH]c2ccccc12)C(=O)N[C@@H](CO)C(=O)N[C@@H](Cc1c[nH]cn1)C(=O)N[C@H](CCCNC(=N)N)C(=O)N[C@@H](Cc1c[nH]c2ccccc12)C(=O)N[C@@H](Cc1ccc(Cl)cc1)C(=O)N1CCC[C@H]1C(=O)NNC(N)=O)C(=O)CN1CCN(CC(=O)O)CCN(CC(=O)O)CCN(CC(=O)O)CC1 [BRU-2725] ; test system: LHRH binding sites on human ovarian cancer cells (EFO-27).
Given back: 5.65

Asked: For LHRH binding sites on human ovarian cancer cells (EFO-27), give the measured pEC50 of the entry N=C(N)NCCC[C@H](NC(=O)[C@@H](Cc1ccc2ccccc2c1)NC(=O)CN1CCN(CC(=O)O)CCN(CC(=O)O)CCN(CC(=O)O)CC1)C(=O)N[C@@H](Cc1c[nH]c2ccccc12)C(=O)N[C@@H](CO)C(=O)N[C@@H](Cc1c[nH]cn1)C(=O)N[C@H](CCCNC(=N)N)C(=O)N[C@@H](Cc1c[nH]c2ccccc12)C(=O)N[C@@H](Cc1ccc(C(=O)c2ccccc2)cc1)C(=O)O [compound 3064] ({DOTA}-[d2Nal]RWSH[dR]W[Bpa]-OH; N-terminus assumed)
Given back: 6.17

Asked: Provide the reported pEC50 (system: LHRH binding sites on human ovarian cancer cells (EFO-27)) for CNCC(=O)N[C@@H](CCCNC(=N)N)C(=O)N[C@@H](Cc1c[nH]c2ccccc12)C(=O)N[C@@H](CO)C(=O)N[C@@H](Cc1c[nH]cn1)C(=O)N[C@H](CCCNC(=N)N)C(=O)N[C@@H](Cc1c[nH]c2ccccc12)C(=O)N[C@@H](Cc1ccc(C(=O)c2ccccc2)cc1)C(=O)N1CCC[C@H]1C(=O)NCc1cccc(CNC(=O)CN2CCN(CC(=O)O)CCN(CC(=O)O)CCN(CC(=O)O)CC2)n1 [compound 3080];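 further: Cell-associated radioactivity on confluent EFO-27 monolayers in 96-well plates, measured by microplate scintillation counting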
Given back: 6.64

Asked: Enter recorded pEC50 with LHRH binding sites on human ovarian cancer cells (EFO-27) for CC(C)C[C@H](NC(=O)[C@H](CO)NC(=O)[C@H](Cc1c[nH]c2ccccc12)NC(=O)[C@H](CCCNC(=N)N)NC(=O)[C@@H](Cc1ccc2ccccc2c1)NC(=O)CN1CCN(CC(=O)O)CCN(CC(=O)O)CCN(CC(=O)O)CC1)C(=O)N[C@H](CCCNC(=N)N)C(=O)N[C@@H](Cc1c[nH]c2ccccc12)C(=O)N[C@@H](Cc1ccc(C(=O)c2ccccc2)cc1)C(=O)N1CCC[C@H]1C(=O)NNC(N)=O [BRU-3029] ({DOTA}-[d2Nal]RWSL[dR]W[Bpa]P[azaGly]-NH2; C-terminus assumed) here.
Given back: 5.92
